Cited source for all entries: paper PMC6648666

Biological target: T1, HqRRM1,2 (hnRNP H tandem qRRMs) (human, UniProt P31943 10-194)
T1 sequence: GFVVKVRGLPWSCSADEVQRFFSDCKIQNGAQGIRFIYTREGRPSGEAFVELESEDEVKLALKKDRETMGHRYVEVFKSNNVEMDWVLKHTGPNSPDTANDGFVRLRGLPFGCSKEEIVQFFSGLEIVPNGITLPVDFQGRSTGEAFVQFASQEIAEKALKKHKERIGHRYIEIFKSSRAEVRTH
Assay: ITC
assay-readout: Kd
Number plus unit, in that order.

Sample AGGGU (ssRNA) ; Kd observed: 800 nM
